System: NCI-H23 lung
assay text: NCI-60 one-dose screen, 48 h (100 = growth as untreated, 0 = no growth, -100 = all killed)
condition label: 10 µM unless noted
Compounds without any hit were thinned out: in the full panel of roughly 83,000, 20% have a hit.
Everything with growth lower than 70% is -1; everything else, including exactly 70%, is 1.

structure notation: Cc1cc2nc3c4cccc(O)c4n(CCN(C)C)c3nc2cc1C
class assignment: -1
//
structure notation: O=C(CNCCN1CCOCC1)N1c2cccc3cccc(c23)N(C(=O)CNCCN2CCOCC2)C1c1cn(-c2ccccc2)nc1-c1cccc([N+](=O)[O-])c1
class assignment: 1
//
structure notation: COc1ccc(-c2cnc3c(-c4cccc5ncccc45)cnn3c2)cc1
class assignment: -1
//
structure notation: COc1cc(/C=C\c2cc(OC)c(OC)c(OC)c2)cc(NC(=O)/C=C/c2cc(OC)c(OC)c(OC)c2)c1OC
class assignment: -1
//
structure notation: CCOc1cccc(-c2nc(N)nc(Nc3ccccc3SSc3ccccc3Nc3nc(N)nc(-c4cccc(OCC)c4)n3)n2)c1
class assignment: -1
//
structure notation: COc1cc(NCCCCCNC(C)(C)C)c2ncccc2c1
class assignment: 1
//
structure notation: COC(=O)/C=C1\S/C(=N\NC(=O)c2cc3ccc2/C=C\c2ccc(cc2)/C=C\3)N(Cc2ccccc2)C1=O
class assignment: 1

---

System: TK-10 renal
assay text: NCI-60 one-dose screen, 48 h
condition label: 10 µM unless noted
The panel holds about 83,000 compounds, 20% with a hit somewhere; the sample as a whole holds those more often. Active and inactive are the calls of the source. How the source made its calls: active means growth percent below 10; inactive means the rest.
Labels: 1 (yes) = active, 0 (no) = inactive

compound: CSc1nc2sc3cccc(Cl)c3n2c(=N)c1C#N
class assignment: 0 (no)

compound: C=C(C)[C@@H]1CC[C@]2(C(=O)N3CCN(C)CC3)CC[C@]3(C)[C@H](CC[C@@H]4[C@@]5(C)CC[C@H](O)C(C)(C)[C@@H]5CC[C@]43C)[C@@H]12
class assignment: 1 (yes)

compound: O=S(=O)(NCCNc1nccc(-c2c(-c3cccc(F)c3)nc3sccn23)n1)c1ccccc1
class assignment: 0 (no)

compound: Cc1cc2nc3c4ccc(Br)cc4n(CCN(C)C)c3nc2cc1C
class assignment: 0 (no)

compound: COc1ccc(/C=C2\Oc3cc(OCCCCCN4CCCCC4)ccc3C2=O)cc1OC
class assignment: 0 (no)

compound: CC(=O)N1N=C(c2ccc(-n3ccc(C(F)(F)F)n3)c(F)c2)CC1c1ccc[nH]1 (stereo not drawn)
class assignment: 0 (no)

compound: ClC1=C(Br)C(Br)(Br)C(=C(Br)Br)C1(Br)Br
class assignment: 0 (no)

compound: CCCCOc1ccc(/C=N/Nc2cc(C)nc3ccc(Br)cc23)cc1
class assignment: 0 (no)

compound: O=C1Nc2ccccc2/C1=C\c1c(-c2ccc(F)cc2)nc2ccccn12
class assignment: 0 (no)

compound: CC1(C)CC[C@]2(C(=O)O)CC[C@]3(C)C(=CC[C@@H]4[C@@]5(C)Cc6c([nH]c7ccccc67)C(C)(C)[C@@H]5CC[C@]43C)[C@@H]2C1
class assignment: 0 (no)

compound: Cc1cnc(C(=O)Nc2nc3ccc(S(=O)(=O)Nc4ccc(C(C)(C)C)cc4)cc3[nH]2)cn1
class assignment: 0 (no)

compound: CC(C)(C)[Si](C)(C)OC1[C@@H](O[Si](C)(C)C(C)(C)C)[C@@H](CNC(=O)NC(=O)CCl)O[C@H]1n1cnc2c(NC(=O)Nc3ccccc3)ncnc21 (stereo partly drawn)
class assignment: 0 (no)

compound: COc1cc(C2C3=C(COC3=O)N(CCO)c3cc4c(cc32)OCO4)cc(OC)c1OC (stereo not drawn)
class assignment: 0 (no)

compound: CC(=O)[C@@H]1CC[C@]2(C(N)=O)CC[C@]3(C)[C@H](CC[C@@H]4[C@@]5(C)CCCNC(C)(C)[C@@H]5CC[C@]43C)[C@@H]12
class assignment: 0 (no)

compound: CCCCCCOc1ccc(/C=N/Nc2cc(C)nc3ccc(Cl)cc23)cc1
class assignment: 1 (yes)

compound: O=C1c2ccccc2CCC12OC2c1cn(-c2ccccc2)nc1-c1ccc(Cl)cc1 (stereo not drawn)
class assignment: 0 (no)

compound: Fc1ccc(-c2cn3c(nc4ccccc43)c(-c3ccccc3)n2)cc1
class assignment: 0 (no)

compound: CC(=O)c1cc2c(N)c(C(=O)Nc3cccc4ccncc34)sc2nc1C
class assignment: 0 (no)
